- Measured On: recombinant human EGFR exon 19 deletion/C797S double mutant protein (Homo sapiens (Human), UniProt P00533, C797S/DEL746-750)
- Sequence (P00533 other isoform, or with tags, fused parts or gaps C797S/del 1-668/del 746-750 limits assumed): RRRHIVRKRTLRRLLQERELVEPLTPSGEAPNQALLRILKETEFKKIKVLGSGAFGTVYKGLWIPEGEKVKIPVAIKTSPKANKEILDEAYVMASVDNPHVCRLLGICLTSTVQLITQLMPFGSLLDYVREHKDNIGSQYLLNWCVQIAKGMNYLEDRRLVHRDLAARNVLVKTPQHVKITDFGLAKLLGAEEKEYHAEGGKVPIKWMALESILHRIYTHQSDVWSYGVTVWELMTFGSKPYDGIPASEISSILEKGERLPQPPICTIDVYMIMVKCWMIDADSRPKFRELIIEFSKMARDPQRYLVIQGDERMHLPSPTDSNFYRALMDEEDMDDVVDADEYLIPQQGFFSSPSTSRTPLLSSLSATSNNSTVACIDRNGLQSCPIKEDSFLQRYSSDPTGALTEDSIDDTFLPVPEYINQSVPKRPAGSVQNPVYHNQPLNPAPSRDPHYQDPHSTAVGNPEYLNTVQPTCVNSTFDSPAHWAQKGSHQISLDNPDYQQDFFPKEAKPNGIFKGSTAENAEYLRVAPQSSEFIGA
- Assay Remarks: Biological Activity Assay C: biochemical assay against EGFR exon 19 deletion/C797S protein (EGFR d19/CS)
Would you mind classing the entries by IC50? Ranges: low value (below 400 pM), medium value (400 pM to below 1000 pM), high value (1000 pM or more)

Answered examples (10):
Ask: Kindly identify the class of CC(C)(O)Cn1cc(-c2ncnc3oc(-c4cccc(F)n4)cc23)c(-c2ccc(F)cc2)n1 .
Result: medium value

Ask: Param item: CN(C)S(=O)(=O)n1cc(-c2ncnc3oc(-c4ccccc4)cc23)c(-c2ccc(F)cc2)n1
Result: high value

Ask: Now this one: CC(=O)N1CCN(c2cc3c(-c4cn(C5CS(=O)(=O)C5)nc4-c4ccc(F)cc4)ncnc3o2)CC1
Result: high value

Ask: Same lookup for COc1ncccc1-c1cc2c(-c3cn(CCC#N)nc3-c3ccc(F)cc3)ncnc2o1 , please.
Result: low value

Ask: Another molecule to look at: CC1(C)C[C@@H](n2cc(-c3ncnc4oc(-c5ccccc5)cc34)c(-c3ccc(F)cc3)n2)CCO1 (single isomer, unassigned)
Result: high value

Ask: Check Fc1ccc(-c2nn(C3CCCOC3)cc2-c2ncnc3oc(-c4ccccc4)cc23)cc1 (racemic) too.
Result: medium value

Ask: Then this molecule: NC(=O)Cn1cc(-c2ncnc3oc(-c4ccccc4)cc23)c(-c2ccc(F)cc2)n1
Result: low value

Ask: Proceed to CN(C)S(=O)(=O)CCCn1cc(-c2ncnc3oc(-c4ccccc4)cc23)c(-c2ccc(F)cc2)n1
Result: medium value

Ask: CS(=O)(=O)N1CC=C(c2cc3c(-c4cn(C5CS(=O)(=O)C5)nc4-c4ccc(F)cc4)ncnc3o2)CC1 , same question.
Result: low value

Ask: What do you get for COC1(CCn2cc(-c3ncnc4oc(-c5ccccc5)cc34)c(-c3ccc(F)cc3)n2)COC1 ?
Result: high value

More entries:
Ask: Band assignment needed for Cc1nn(C)cc1-c1cc2c(-c3cn([C@H]4C[C@H](C#N)C4)nc3-c3ccc(F)cc3)ncnc2o1 please.
Result: low value

Ask: Lookup Fc1ccc(-c2nn(C3CCCCC3(F)F)cc2-c2ncnc3oc(-c4ccccc4)cc23)cc1 (stereo not drawn)
Result: high value

Ask: Follow-up entry: Cc1cccnc1-c1cc2c(-c3cn(C4CS(=O)(=O)C4)nc3-c3ccc(F)cc3)ncnc2o1
Result: high value

Ask: Item: CN1CCN(c2ccc(-c3cc4c(-c5cn(CCCO)nc5-c5ccc(F)cc5)ncnc4o3)cc2)CC1
Result: low value

Ask: Ok, now C[C@@H]1C[C@H](n2cc(-c3ncnc4oc(-c5ccccc5)cc34)c(-c3ccc(F)cc3)n2)CN1S(C)(=O)=O
Result: low value
